- system.tested: T1, Insulin-like Growth Factor II (IGF-II), recombinant human (human, UniProt P01344 25-91, biotinyl group (site not stated) when immobilised for SPR; not biotinylated as SPR analyte or in ITC)
- T1 construct: mature; Bought as Biotinyl-IGF-II from GroPep for immobilisation on streptavidin chips; also called IGF2; Biotinyl-IGF-II
- assay.method.text: SPR, steady-state KD relative to wild type domain 11
measured.attribute: Relative Affinity

// worked examples, Relative Affinity included
[[record]]
binder = "IGF2R domain 11 with D at position 1544 (receptor, Secreted from Pichia pastoris; also called E1544D) NEHDDCQVTNPSTGHLFDLSSLSGRAGFTAAYSDKGLVYMSICGENENCPPGVGACFGQTRISVGKANKRLRYVDQVLQLVYKDGSPCPSKSGLSYKSVISFVCRPEAGPTNRPMLISLDKQTCTLFFSWHTPLACEQATHHHHHH"
measured_attribute = "Relative Affinity"
measurement = "0.48 fold vs wild type domain 11"

[[record]]
binder = "IGF2R domain 11 with S at position 1544 (receptor, Secreted from Pichia pastoris; also called E1544S) NEHDDCQVTNPSTGHLFDLSSLSGRAGFTAAYSSKGLVYMSICGENENCPPGVGACFGQTRISVGKANKRLRYVDQVLQLVYKDGSPCPSKSGLSYKSVISFVCRPEAGPTNRPMLISLDKQTCTLFFSWHTPLACEQATHHHHHH"
measured_attribute = "Relative Affinity"
measurement = "5.24 fold vs wild type domain 11"

[[record]]
binder = "IGF2R domain 11 with L at position 1544 (receptor, Secreted from Pichia pastoris; also called E1544L) NEHDDCQVTNPSTGHLFDLSSLSGRAGFTAAYSLKGLVYMSICGENENCPPGVGACFGQTRISVGKANKRLRYVDQVLQLVYKDGSPCPSKSGLSYKSVISFVCRPEAGPTNRPMLISLDKQTCTLFFSWHTPLACEQATHHHHHH"
measured_attribute = "Relative Affinity"
measurement = "2.02 fold vs wild type domain 11"


Inquiry: Look up and state reported Relative Affinity for IGF2R domain 11 with N at position 1544 (receptor, Secreted from Pichia pastoris; also called E1544N) NEHDDCQVTNPSTGHLFDLSSLSGRAGFTAAYSNKGLVYMSICGENENCPPGVGACFGQTRISVGKANKRLRYVDQVLQLVYKDGSPCPSKSGLSYKSVISFVCRPEAGPTNRPMLISLDKQTCTLFFSWHTPLACEQATHHHHHH
Reply text: 0.88 fold vs wild type domain 11

Inquiry: Give the measured Relative Affinity for IGF2R domain 11 with Q at position 1544 (receptor, Secreted from Pichia pastoris; also called E1544Q) NEHDDCQVTNPSTGHLFDLSSLSGRAGFTAAYSQKGLVYMSICGENENCPPGVGACFGQTRISVGKANKRLRYVDQVLQLVYKDGSPCPSKSGLSYKSVISFVCRPEAGPTNRPMLISLDKQTCTLFFSWHTPLACEQATHHHHHH
Reply text: 3.87 fold vs wild type domain 11

Inquiry: Please give measured Relative Affinity of the following entry: IGF2R domain 11 with P at position 1544 (receptor, Secreted from Pichia pastoris; also called E1544P) NEHDDCQVTNPSTGHLFDLSSLSGRAGFTAAYSPKGLVYMSICGENENCPPGVGACFGQTRISVGKANKRLRYVDQVLQLVYKDGSPCPSKSGLSYKSVISFVCRPEAGPTNRPMLISLDKQTCTLFFSWHTPLACEQATHHHHHH
Reply text: 0.49 fold vs wild type domain 11
